Reference source for all entries: patent US20250026752A1

Target: human mAChR M4 (Homo sapiens, UniProt P08173)
Construct: expressed in transfected cells; host or cells: CHO-K1 (ATCC), stably expressing hM4 and Gqi5
Sequence (P08173 1-479): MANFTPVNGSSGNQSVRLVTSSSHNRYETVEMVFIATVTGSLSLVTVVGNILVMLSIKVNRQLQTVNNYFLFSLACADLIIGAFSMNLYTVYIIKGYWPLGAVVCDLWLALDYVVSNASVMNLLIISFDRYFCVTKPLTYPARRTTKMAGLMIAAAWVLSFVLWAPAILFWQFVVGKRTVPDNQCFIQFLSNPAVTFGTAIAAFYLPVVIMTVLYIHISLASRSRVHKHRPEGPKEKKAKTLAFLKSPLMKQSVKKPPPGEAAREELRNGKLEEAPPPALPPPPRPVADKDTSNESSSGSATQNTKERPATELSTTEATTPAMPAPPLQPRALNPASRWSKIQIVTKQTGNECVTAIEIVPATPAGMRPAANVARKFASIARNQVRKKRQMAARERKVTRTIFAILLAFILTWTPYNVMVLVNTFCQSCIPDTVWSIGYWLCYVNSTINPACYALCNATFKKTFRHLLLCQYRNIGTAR
Assay: mAChR M4 cell-based functional assay: calcium flux (Fluo-4, FDSS), positive allosteric modulator activity on the EC20 acetylcholine response, hM4-Gqi5 CHO-K1 cells
Details: CHO-K1, human M4; % ACh maximum at 30 μM
Experimental Readout: Emax at 30 µM (%)
Return type: number; implicit unit %.

CC(C)n1nccc1-c1cnc2c(c1)CN(c1ncnc3cc(F)c(F)cc13)CC2
85
C[C@H]1CN(c2ncnc3ccc(F)cc23)Cc2cc(N3CCOCC3)cnc21
73
Clc1ccc2nc(Cl)nc(N3CCc4ncc(N5CCCn6nccc65)cc4C3)c2c1
109
FC(F)(F)c1ccc2nc(N3CCc4ncc(C5CC5)cc4C3)nc(N3CCc4ncc(C5CC5)cc4C3)c2c1
57
Cc1cc2n(n1)CCCN2c1cnc2c(c1)CN(c1ncnc3ccc(F)cc13)CC2
103
Cc1nc(N2CCc3ncc(-c4cnn(C5CC5)c4)cc3C2)c2cc(Cl)ccc2n1
80
Fc1ccc2ncnc(N3CCc4ncc(N5CCCn6nccc65)cc4C3)c2c1
82

// query Emax at 30 µM value for entry `Cc1noc(C)c1-c1cnc2c(c1)CN(c1nc(-c3c(C)noc3C)nc3ccc(Cl)cc13)CC2`
79
